Data origin: patent US5446039A

# tgt: glycine receptor of the NMDA receptor complex (Rattus norvegicus, UniProt P35439)
# Construct: Freshly dissected cortices and hippocampi are homogenized in 0.32 M sucrose
# experiment-summary: [3H]-glycine binding assay at the N-methyl-D-aspartate receptor, rat neuronal synaptic membranes (cortices and hippocampi)
# condition-description: 20 nM [3H]-glycine, pH 7.1, 30 minutes at 4° C.
Can you tell me pIC50 for the items I'm about to list?
Scale note: pIC50 = -log10(concentration in M).

Identify the measured pIC50 of O=c1[nH]c2cc(Br)ccc2c(=O)cc1O [Example 3] for glycine receptor of the NMDA receptor complex (Rattus norvegicus, UniProt P35439).
7.01

Observed pIC50 on glycine receptor of the NMDA receptor complex (Rattus norvegicus, UniProt P35439) for COc1cc(=O)c2ccc(Cl)cc2[nH]c1=O [Example 1a] , please.
6.00

Record lookup: for glycine receptor of the NMDA receptor complex (Rattus norvegicus, UniProt P35439), what pIC50 belongs to O=c1[nH]c2cc(Cl)ccc2c(=O)cc1O [Example 1] ?
7.52
